Assay: qHTS for Inhibitors of human tyrosyl-DNA phosphodiesterase 1 (TDP1): qHTS in cells in absence of CPT; note: nearly all actives have a fitted effect of over 55% in size
Conditions: DT40 Tdp1-/- hTDP1 cells, no CPT, ATP luminescence, 48 h
Protocol: Human tyrosyl-DNA phosphodiesterase 1 (TDP1) is a novel repair gene, and we propose to use it as a new target for anticancer drug development. […] For the primary screen, Tdp1-/-;hTDP1 cells will be exposed to small molecules in the presence or absence of CPT, and their growth kinetics will be evaluated after 48 hours by measuring ATP activity. […] The hit compounds will then be evaluated in the presence or absence of CPT using Tdp1-/- cells. […]
The whole screen tested about 420,000 compounds, of which about 64,000 (15%) were called active. Roughly 27% stayed inconclusive and do not appear here. Calls come from the whole dose curve; as a rule, active = well fitted inhibition curve with a large enough effect; inconclusive = small, poorly fitted or top-dose-only effect; inactive = flat fitted curve, though single readings scatter. The list is a sample of the results.
Just give me one of these, please: t = active, f = inactive

State the result this test recorded for CNC(=O)C1CCN(S(=O)(=O)c2c(C)noc2/C=C/c2cccc(C)c2)CC1 .
f

State the result this test recorded for CCOC(=O)Cc1cc(=O)[nH]c(/N=C(\N)Nc2ccc(OC)cc2)n1 .
f

State the result this test recorded for CC1COC2C(O1)N(S(C)(=O)=O)CCN2S(C)(=O)=O (configuration not stated) .
f

State the result this test recorded for CC(C)(C)N1C(=O)[C@H]2[C@@H](c3ccc(Br)cc3)N3C(=O)N(c4cccc(Cl)c4)C(=O)[C@@]3(C)[C@H]2C1=O .
f

State the result this test recorded for Cc1cc(C)n(-c2nnc(C)n2NC(=O)c2cccc(Cl)c2)n1 .
f

State the result this test recorded for Cc1cccc(-n2cnc(C(=O)Nc3cccnc3)c2)n1 .
f

State the result this test recorded for O=C(Nc1ccc(-n2ccnc2P(=O)(O)c2ccccc2)cc1)c1ccccc1Br .
f

State the result this test recorded for C/C(=N\NC(=O)CC(C)C)c1c(C(F)(F)F)[nH]n(-c2nc3ccccc3s2)c1=O .
f

State the result this test recorded for CN(C(=O)COC(=O)c1cc(-c2ccco2)nc2ccccc12)C1CCS(=O)(=O)C1 (configuration not stated) .
f

State the result this test recorded for COc1ccc([C@H]2CC(=O)C=C(/C=C/c3ccccc3)C2)cc1 .
f

State the result this test recorded for COc1cc(C(=S)NC2CCCCC2)ccc1O .
f

State the result this test recorded for CC(C)NC(=O)NCCCCCCS(C)=O (configuration not stated) .
f

State the result this test recorded for Cn1cc(Cl)c(C(=O)NNC(=S)Nc2cccc(Cl)c2)n1 .
f

State the result this test recorded for CN(c1ccccc1)c1nc(N)c([N+](=O)[O-])c(NCc2ccco2)n1 .
f

State the result this test recorded for Cc1cccc(-n2cnc(C(=O)NNC(=S)Nc3ccccc3)c2)n1 .
t

State the result this test recorded for Cc1ccc(CN2C(=O)SC(Nc3ccccc3)C2=O)cc1 (configuration not stated) .
f

State the result this test recorded for COc1cc(CN2CCC(n3nccc3NC(=O)CCCc3ccccc3)CC2)ccc1O .
f

State the result this test recorded for Cc1ccc(-c2nc(=N)sn2Cc2ccccc2)cc1 .
t

State the result this test recorded for Cc1ccc(CN2CCC(n3nccc3NC(=O)CCCc3ccccc3)CC2)o1 .
f

State the result this test recorded for O=C(NCc1ccccc1)c1ccc(CNc2c(N3CCCC3)c(=O)c2=O)cc1 .
f

State the result this test recorded for CCC(=O)Oc1cccc(C(=O)Nc2ccc(-c3nnc(-c4ccco4)o3)cc2)c1 .
t

State the result this test recorded for Cc1cccc(NC(=O)C2CCN(S(=O)(=O)c3c(C)noc3/C=C/c3ccco3)CC2)c1 .
t

State the result this test recorded for NS(=O)(=O)c1ccc(NC(=O)COC(=O)c2ccco2)cc1 .
f

State the result this test recorded for Cc1ccnc(NC(=O)C2CCN(S(=O)(=O)c3c(C)c(C)cc(C)c3C)CC2)c1 .
f

State the result this test recorded for CCOC(=O)c1sc(NC(=O)CSc2ncccn2)c(C#N)c1C .
f

State the result this test recorded for Cc1cc(C)cc(NC(=O)Cc2csc(C)n2)c1 .
f

State the result this test recorded for CCSc1nc(O)c(C(c2cccc(OC)c2)c2c(O)nc(SCC)[nH]c2=O)c(=O)[nH]1 .
f

State the result this test recorded for COc1ccc(CN2CCC(n3nccc3NC(=O)CCCc3ccccc3)CC2)cc1C .
t

State the result this test recorded for Cc1nc2ccc(C(=O)N(C)CC3CCCN(CCc4ccc(Cl)cc4)C3)cc2[nH]1 (configuration not stated) .
f

State the result this test recorded for NC(=S)N/N=C/c1ccc([N+](=O)[O-])cc1 .
f

State the result this test recorded for Cc1noc(/C=C/N(C)C)c1S(=O)(=O)N1CCCC(C(=O)NCc2ccco2)C1 (configuration not stated) .
f

State the result this test recorded for CC(C)NC(=O)N1CCCC2(CCN(C(=O)c3cccn3C)CC2)C1 .
f

State the result this test recorded for O=c1onc(-c2cccs2)n1Cc1ccccc1 .
f

State the result this test recorded for O=C(Nc1cccc(Cc2ccccc2)c1)Nc1ccc2nc([C@@H]3O[C@H](CO)[C@@H](O)[C@H](O)[C@H]3O)[nH]c2c1 .
f

State the result this test recorded for CCOCC(=O)NCc1ccc2c(c1)cc(C)n2C .
f

State the result this test recorded for CC(=O)c1ccc(NC(=O)C2CCN(S(=O)(=O)c3c(C)noc3/C=C/c3ccc(C)cc3)CC2)cc1 .
f

State the result this test recorded for CC(C)(C)c1ccc(NC(=O)COC(=O)CCc2nc3ccccc3c(=O)[nH]2)cc1 .
f

State the result this test recorded for COC(=O)Cc1[nH]n(-c2nc3ccccc3s2)c(=O)c1C(C)=Nc1ccc(OC)cc1 .
t

State the result this test recorded for COc1cccc(CN(C)CC2CCCN(CCc3ccc(Cl)cc3)C2)c1OC (configuration not stated) .
t

State the result this test recorded for Cc1ccc2c(c1)C(O)(CC(=O)c1cccc(-n3cccc3)c1)C(=O)N2 (configuration not stated) .
f

State the result this test recorded for CC(=O)O[C@H]1CC[C@@]2(C)[C@@H](CC[C@@H]3[C@@H]2CC[C@]2(C)[C@@H](C(C)(C)O)C[C@@H]32)C1 .
f

State the result this test recorded for COC(=O)c1ccccc1C(=O)NCc1nc(N2CCCC2)c2cccc(C)c2n1 .
f
